Cited source: patent US4214093A

Here, each record is paired with measured IC50 data.
Biological target: Trypsin (Bos taurus, UniProt P00760)
Sequence (P00760 24-246): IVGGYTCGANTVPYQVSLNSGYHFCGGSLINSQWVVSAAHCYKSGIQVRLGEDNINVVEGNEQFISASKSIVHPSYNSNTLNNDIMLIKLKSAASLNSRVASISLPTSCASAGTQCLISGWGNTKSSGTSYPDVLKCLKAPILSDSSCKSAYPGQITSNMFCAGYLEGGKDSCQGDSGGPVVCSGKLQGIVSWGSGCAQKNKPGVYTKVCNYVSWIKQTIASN
Test: Inhibitory effect on ester-hydrolyzing activity of trypsin (TAMe substrate)
Assay type: biochemical
Conditions: in vitro, TAMe, pH 8.6, 37° C.; Table 4 bracketed value; read-out: Trypsin ID50
Express it in µM; write the number only.

Ask | Recorded IC50 of COC(=O)c1cccc(OC(=O)C2CCCc3ccc(N)cc32)c1 (centres unmarked) , please.
Reply | 98

Ask | I would be grateful if you could share the reported IC50 for COC(=O)c1ccc(OC(=O)C2CCCc3c(N)cccc32)cc1 (centres unmarked) .
Reply | 18

Ask | Consider the compound shown here: CCOC(=O)c1ccc(OC(=O)C2CCCc3ccc(NC(=N)N)cc32)cc1 (centres unmarked) What is its recorded IC50?
Reply | 150

Ask | # get_value(readout='IC50', item= COC(=O)c1ccc(OC(=O)C2CCCc3ccc(NC(=N)N)cc32)cc1 (centres unmarked) )
Reply | 14

Ask | Quick one: IC50 of CN(C)C(=O)COC(=O)c1ccc(OC(=O)C2CCCc3ccc(N)cc32)cc1 (centres unmarked) ?
Reply | 190

New cases:
Ask | Data request, read-out IC50, for CCOC(=O)COC(=O)c1ccc(OC(=O)C2CCCc3ccc(N)cc32)cc1 (centres unmarked)
Reply | 60

Ask | Sample Nc1ccc2c(c1)C(C(=O)Oc1ccc(OC(=O)C3CCCc4ccc(N)cc43)cc1)CCC2 (centres unmarked) — what was its IC50?
Reply | 92

Ask | Which IC50 reading was recorded for the compound N=C(N)Nc1cccc2c1CCCC2C(=O)Oc1ccc(C(=O)OCC(N)=O)cc1 (centres unmarked) ?
Reply | 75

Ask | Would you kindly share the measured IC50 for CCCOC(=O)c1ccc(OC(=O)C2CCCc3ccc(NC(=N)N)cc32)cc1 (centres unmarked) ?
Reply | 100

Ask | Query (compound): N#Cc1ccc(OC(=O)C2CCCc3ccc(NC(=N)N)cc32)cc1 (centres unmarked) ; field requested: IC50
Reply | 130

Ask | Name the recorded IC50 for COC(=O)c1ccc(OC(=O)C2CCCc3c(NC(=N)N)cccc32)cc1 (centres unmarked) .
Reply | 1000
